system: RXF 393 renal; experiment: NCI tumour cell line growth inhibition, 48 h
ENDPOINT_LABEL: GI50

# annotated cases, reported GI50 shown
[
  {
    "MOLECULE": "CCC(C)C1=NC(C(=O)N/C=C\\c2c[nH]c3cc(Br)c(Br)cc23)(C(C)C)NC1=O (configuration not stated)",
    "OBSERVED_VALUE": "15.4 µM"
  },
  {
    "MOLECULE": "C/C(=N\\NC(=O)c1ccccc1N)c1ccccc1O",
    "OBSERVED_VALUE": "11.2 µM"
  },
  {
    "MOLECULE": "CN1C(=O)C23CC4(C56CC78SSC(CO)(C(=O)N7C5Nc5ccccc56)N(C)C8=O)c5ccccc5NC4N2C(=O)C1(CO)SS3 (configuration not stated)",
    "OBSERVED_VALUE": "0.0129 µM"
  },
  {
    "MOLECULE": "CC(=O)O[C@H]1[C@@H]2OC(=O)C3(CC3)C2C[C@H]2O[C@]2(C)CC/C=C(\\C)CCC[C@@H]1C (some centres not stated)",
    "OBSERVED_VALUE": "14.8 µM"
  },
  {
    "MOLECULE": "COC(=O)[C@]12CC[C@@H](C(=O)/C=C/c3cccnc3)[C@@H]1[C@H]1CC[C@@H]3[C@@]4(C)C/C(=C/c5cccnc5)C(=O)C(C)(C)[C@@H]4CC[C@@]3(C)[C@]1(C)CC2",
    "OBSERVED_VALUE": "0.219 µM"
  }
]

Q) Give recorded GI50 with RXF 393 renal for the following molecule: "CNC[C@@H](NC(=O)c1ccc(-c2nc([C@H]3CC[C@H](O)[C@@H](F)C3)cnc2N)cc1F)c1cc(F)cc(Br)c1"
A) 6.28 µM

Q) Give recorded GI50 with RXF 393 renal for the following molecule: "COc1ccc(-c2cn(-c3cccc(C(=O)/C=C/c4cc(OC)c(OC)c(OC)c4)c3)c(=O)[nH]2)cc1"
A) 1.92 µM
